test system: SK-MEL-28 melanoma; assay: NCI tumour cell line growth inhibition, 48 h
Below is a list of entries, each paired with its recorded TGI value.

>>> observed_result("COc1ccc(-c2cc(-c3ccco3)c(C#N)c(=O)n2C2OC(COC(C)=O)C(OC(C)=O)C(OC(C)=O)C2OC(C)=O)cc1 (stereo not given)")
"> 100 µM"

*Q* Test system SK-MEL-28 melanoma; read-out TGI; what value for Cc1ncc2c(n1)CCC1=C2OS(=O)(=O)CC1N(C)C (stereo not given) ?
*A* > 100 µM

*Q* // repeat for Nc1ncnc2occ(-c3ccc(NC(=O)Nc4cccc(C(F)(F)F)c4)cc3)c12 and report
*A* 12.7 µM

*Q* Ok, now COc1ccccc1NC(=S)Nc1ccccn1
*A* > 100 µM

*Q* And the next one, Nc1ncnc2c1ncn2C1(CO)OC(CO)C(O)C1O (stereo not given) ?
*A* > 100 µM

Data provenance: PubChem BioAssay (NCI)
